Values from ChEMBL document CHEMBL3988442

# Test system: Wolbachia pipientis
# MEASUREMENT_DESCRIPTION: Anti-Wolbachia Cell-Based Screen
# Assay type: functional
# Set-up: scale not given: in the data most compounds retested in dose-response had high values
# CONDITION_DETAILS: 5 µM
Among all 48,000 compounds or so, about 13,000 (27%) showed an effect of 50% or more. This is one part of the list.
Recorded Percent Effect, one value per entry.
ATTRIBUTE_MEASURED: Percent Effect (%)

1. O=c1cc(N2CCCCC2)cnn1Cc1noc(C2CCCO2)n1 (stereo unspecified) : -0.8561
2. COCCC(=O)N1CCC(Nc2ncc(Cl)cn2)CC1 : -4.765
3. CN(C)Cc1cc(C2CCCN(S(=O)(=O)c3cccc(Cl)c3)C2)nn1C (stereo unspecified) : 157.3
4. CN(CCNS(C)(=O)=O)C(=O)c1ccc(Cl)c(Cl)c1 : 2.263
5. Cc1ccc2c(c1)SCC(=O)N2Cc1noc(C2CC2)n1 : 92.98
6. CCNS(=O)(=O)c1ccc2c(c1)c(=O)n(CC)c(=O)n2CC : 90.08
7. Cc1nn(C)cc1CN(C)Cc1cc2c(cc1OC(F)F)OCO2 : 5.231
8. Cc1ccc2c(c1)SCC(=O)N2Cc1noc(C2CCCO2)n1 (stereo unspecified) : 109.6
9. Cc1cccc(-c2nc(CN(Cc3cccs3)CC3CCCO3)no2)c1 (stereo unspecified) : 0.4556
10. CC(C)OCC(=O)N1CCC(c2ncncc2-c2ccnc(N)c2)C1 (stereo unspecified) : 123.4
11. CN(C)CCN1CC[C@@H]2[C@@H]1CCN2C(=O)c1cccc(Cl)c1 : -16.88
12. Cc1ccc2c(c1)SCC(=O)N2CC(=O)N1CCC[C@H]1c1nc(C)no1 : 9.485
13. Cc1ccc2c(c1)SCC(=O)N2CC(=O)N1CCCC1c1nccs1 (stereo unspecified) : 15.48
14. CCc1cnc(CN(C(C)=O)C2CCN(CCc3cnn(C)c3)C2)o1 (stereo unspecified) : 11.37
15. c1cnc(-c2nc(CNCCn3cccn3)cs2)nc1 : -8.125
16. Cc1nc(C2CCN(C(=O)COC(C)C)CC2)cc(N2CCOCC2)n1 : 30.46
